target: Cannabinoid receptor 2 (Homo sapiens, UniProt P34972); assay: Radioligand Binding Assay
Sequence (P34972 whole entry): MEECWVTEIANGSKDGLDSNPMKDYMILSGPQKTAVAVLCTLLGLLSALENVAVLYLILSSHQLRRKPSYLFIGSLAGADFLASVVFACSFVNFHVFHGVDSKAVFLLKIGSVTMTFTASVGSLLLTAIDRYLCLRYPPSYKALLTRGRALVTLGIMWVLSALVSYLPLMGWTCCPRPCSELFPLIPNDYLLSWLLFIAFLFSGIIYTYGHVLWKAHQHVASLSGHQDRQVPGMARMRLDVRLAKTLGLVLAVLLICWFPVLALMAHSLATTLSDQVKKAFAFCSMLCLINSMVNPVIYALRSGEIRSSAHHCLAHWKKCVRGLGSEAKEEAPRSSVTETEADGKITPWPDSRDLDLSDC
Please map values of EC50 to classes as shown: 1: < 30 nM; 2: ≥ 30 nM and < 100 nM; 3: ≥ 100 nM

CC1(C)C(C(=O)c2cn(CC3CCOCC3)c3cc(Cl)ccc23)C1(C)C | 1
CC1(C)C(C(=O)c2cn(CC3CCOCC3)c3ccc(F)cc23)C1(C)C | 2
CC1(C)C(C(=O)c2cn(CCN3CCOCC3)c3cccc(N)c23)C1(C)C | 3
CC1(C)C(C(=O)c2cn(CC3CCOCC3)c3ccc(Br)cc23)C1(C)C | 3
CC1(C)C(C(=O)c2cn(CC3CCOCC3)c3ccc(O)cc23)C1(C)C | 1
CC1(C)C(C(=O)c2cn(CC3CCOCC3)c3cccc(O)c23)C1(C)C | 2
CC1(C)C(C(=O)c2cn(CC3CCOCC3)c3ccc(Cl)cc23)C1(C)C | 3
CC1(C)C(C(=O)c2cn(CC3CCOCC3)c3c(F)c(F)c(F)c(F)c23)C1(C)C | 2
Cc1c(C(=O)C2C(C)(C)C2(C)C)c2ccccc2n1CCN1CCOCC1 | 3
CC1(C)C(C(=O)c2cn(CC3CCOCC3)c3cc(O)c(O)cc23)C1(C)C | 1
CC1(C)C(C(=O)c2cn(CCN3CCOCC3)c3ccccc23)C1(C)C | 1
CC1(C)C(C(=O)c2cn(CC3CCOCC3)c3cc(OCc4ccccc4)ccc23)C1(C)C | 3
CC1(C)C(C(=O)c2cn(CC3CCOCC3)c3cc(O)ccc23)C1(C)C | 1
CC1(C)C(C(=O)c2cn(CC3CCOCC3)c3ccc(C#N)cc23)C1(C)C | 3
COc1cccc2c1c(C(=O)C1C(C)(C)C1(C)C)cn2CC1CCOCC1 | 2
CC1(C)C(C(=O)c2cn(CC3CCOCC3)c3cc(C#N)ccc23)C1(C)C | 2
CC1(C)C(C(=O)c2cn(CC3CCOCC3)c3ccc(N)cc23)C1(C)C | 1
COCc1ccc2c(c1)c(C(=O)C1C(C)(C)C1(C)C)cn2CC1CCOCC1 | 2
CC1(C)C(C(=O)c2cn(CC3CCOCC3)c3cccc(OCc4ccccc4)c23)C1(C)C | 3
CC1(C)C(C(=O)c2cn(CC3CCOCC3)c3ccccc23)C1(C)C | 1

---

target: Cannabinoid receptor 2 (Homo sapiens); experiment: Radioligand Binding Assay
Metric: EC50

CC1(C)C(C(=O)c2cn(CC3CCOCC3)c3ccc(CO)cc23)C1(C)C | 97.5 nM
CC1(C)C(C(=O)c2cn(CC3CCOCC3)c3cc4c(cc23)OCO4)C1(C)C | 29.5 nM
COc1ccc2c(c1)c(C(=O)C1C(C)(C)C1(C)C)cn2CC1CCOCC1 | 101 nM
